# Inhibition rate of lipid peroxide formation values compiled below
- Test system: lipid peroxide formation in rat brain tissue homogenate
- TEST DESCRIPTION: Activity to inhibit lipid peroxide formation in rat brain tissue homogenate (TBA method)
- Type: biochemical, rat (male SD)
- PARTICULARS: 10^-5 M; n = 3, mean; 5% brain homogenate, pH 7.4, 37° C., 1 hour
QUANTITY MEASURED: Inhibition rate of lipid peroxide formation (%)

1. O=C1O[C@H]([C@@H](O)CO)C(O)=C1O [Vitamin C, reference compound]    -71.6
2. CCCCCCCCCCCCOc1ccc(C2=C(O)CN(CCCCCCCCCCCC)C2=O)cc1    100
3. CCCCCCCCCCCCOc1ccc(C2=C(O)CN(Cc3c(C)c(OC)c(C)c(C)c3OC)C2=O)cc1    100
4. CCCCCCCCCCCCOc1ccc(C2=C(O)CN(Cc3ccsc3)C2=O)cc1    89.4
5. CCCCCCCCCCCCOc1ccc(C2=C(O)CN(Cc3ccc(C(=O)O)cc3)C2=O)cc1    63.8
6. CCCCCCCCCCCCOc1ccc(C2=C(O)CN(CCCc3ccccc3)C2=O)cc1    100
7. CCCCCCCCCCCCOc1ccc(C2=C(O)CN(CCc3ccccc3)C2=O)cc1    100

----------
- System: lipid peroxide formation in rat brain tissue homogenate
- TEST DESCRIPTION: Activity to inhibit lipid peroxide formation in rat brain tissue homogenate (TBA method)
- Format: biochemical, rat (male SD)
- PARTICULARS: 10^-5 M; n = 3, mean; 5% brain homogenate, pH 7.4, 37° C., 1 hour
# Inhibition rate of lipid peroxide formation values compiled below
QUANTITY MEASURED: Inhibition rate of lipid peroxide formation (%)

1. CCCCCCCCCCCCOc1ccc(C2=C(O)CN(CC(C)C)C2=O)cc1    100
2. CCCCCCCCCCCCOc1ccc(C2=C(O)CN(C)C2=O)cc1    97.9
3. CCCCCCCCCCCCOc1ccc(C2=C(O)CN(c3ccccc3)C2=O)cc1    100
4. CCCCCCCCCCCCOc1ccc(C2=C(O)CN(Cc3cc(OC)c(OC)c(OC)c3)C2=O)cc1    96.7
5. CCCCCCCCCCCCOc1ccc(C2=C(O)CN(Cc3ccc(C(=O)OC)cc3)C2=O)cc1    52.8
6. CCCCCCCCCCCCCCOc1ccc(C2=C(O)CN(C)C2=O)cc1    97.9
7. CCCCCCCCCCCCOc1ccc(C2=C(O)CN(Cc3ccccc3)C2=O)cc1    75.5
8. CCCCCCCCCCCCOc1ccc(C2=C(O)CN(Cc3ccc(Cl)cc3)C2=O)cc1    100
